system-tested: Glutathione reductase, mitochondrial (Homo sapiens, UniProt P00390)
Sequence (P00390 whole entry): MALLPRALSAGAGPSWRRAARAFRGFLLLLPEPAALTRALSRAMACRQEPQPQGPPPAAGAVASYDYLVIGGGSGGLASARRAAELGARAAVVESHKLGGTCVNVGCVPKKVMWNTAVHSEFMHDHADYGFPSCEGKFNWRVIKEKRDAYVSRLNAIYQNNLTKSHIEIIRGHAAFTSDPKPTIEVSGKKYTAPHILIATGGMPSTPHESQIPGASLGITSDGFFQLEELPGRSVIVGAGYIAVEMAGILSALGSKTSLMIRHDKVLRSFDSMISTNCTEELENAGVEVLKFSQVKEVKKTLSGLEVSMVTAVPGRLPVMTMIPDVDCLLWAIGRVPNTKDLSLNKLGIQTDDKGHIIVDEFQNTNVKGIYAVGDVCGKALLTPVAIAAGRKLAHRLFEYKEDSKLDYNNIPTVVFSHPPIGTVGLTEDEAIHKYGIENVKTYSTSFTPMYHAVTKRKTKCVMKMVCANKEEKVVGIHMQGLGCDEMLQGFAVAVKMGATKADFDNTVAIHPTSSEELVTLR
assay-name: Inhibition of human glutathione reductase
pIC50: −log10 of the molar value.

compound: COC(=O)CN1C(C)=Nc2ccc(Br)cc2C1c1ccccc1 (racemic)
system-tested: Glutathione reductase, mitochondrial (Homo sapiens, UniProt P00390)
pIC50: < 4.00

---

system-tested: Trypanothione reductase (Trypanosoma brucei brucei, UniProt P39051)
Sequence (P39051 whole entry): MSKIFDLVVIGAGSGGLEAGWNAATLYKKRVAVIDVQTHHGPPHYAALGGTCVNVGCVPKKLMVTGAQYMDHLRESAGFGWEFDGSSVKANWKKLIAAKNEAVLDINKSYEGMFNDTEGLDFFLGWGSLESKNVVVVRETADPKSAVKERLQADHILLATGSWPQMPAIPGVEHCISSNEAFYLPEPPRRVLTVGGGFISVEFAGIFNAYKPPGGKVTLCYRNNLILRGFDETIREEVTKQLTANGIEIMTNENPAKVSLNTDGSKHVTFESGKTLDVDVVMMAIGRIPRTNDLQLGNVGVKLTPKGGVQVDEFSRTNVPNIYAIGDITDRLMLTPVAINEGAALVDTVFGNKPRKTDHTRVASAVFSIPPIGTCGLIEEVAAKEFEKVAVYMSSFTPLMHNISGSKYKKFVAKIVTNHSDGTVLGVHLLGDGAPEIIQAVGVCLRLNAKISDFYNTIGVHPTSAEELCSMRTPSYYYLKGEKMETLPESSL
assay-name: Inhibition of recombinant trypanothione reductase from Trypanosoma brucei brucei S427 by DTNB-coupled spectrophotometric assay
Recorded IC50 determines the label; the label ranges are one (below 1 µM), two (1 µM to below 10 µM), three (10 µM or more)

compound: CC1=Nc2ccc(I)cc2C(c2ccccc2)N1CCN1CCCCC1 (racemic)
answer-label: one
//
compound: CC1=Nc2ccc(Cl)cc2C(c2cccc(C)c2)N1CCN1CCCCC1 (racemic)
answer-label: two
//
compound: COc1ccc(C2(O)c3cc(Cl)ccc3N=C(C)N2CCN2CCCCC2)cc1 (racemic)
answer-label: two
//
compound: CC1=Nc2ccc(Cl)cc2C(c2ccc(C)cc2)N1CCCN(C)C (racemic)
answer-label: one
//
compound: CC(=O)N1CCN(CCN2C(C)=Nc3ccc(Cl)cc3C2c2ccccc2)CC1 (racemic)
answer-label: two
//
compound: CCOC(=O)CN1C(C)=Nc2ccc(Br)cc2C1c1ccccc1 (racemic)
answer-label: three
//
compound: CC1=Nc2ccc(Cl)cc2C(c2ccc(O)cc2)N1CCN1CCCCC1 (racemic)
answer-label: three
//
compound: CC1=Nc2ccc(Cl)cc2C(c2ccccc2)N1Cc1cccc(N(C)C)c1 (racemic)
answer-label: one
//
compound: CC1=Nc2ccc(-c3cccc4ccccc34)cc2C(c2ccccc2)N1CCN1CCCCC1 (racemic)
answer-label: two
//
compound: COC(=O)CN1C(CCN2CCOCC2)=Nc2ccc(Br)cc2C1c1ccccc1 (racemic)
answer-label: three
//
compound: COc1ccc(C2c3cc(Cl)ccc3N=C(C)N2CCN2CCCCC2)cc1 (racemic)
answer-label: two
//
compound: CC1=Nc2c(-c3ccccc3)cc(Cl)cc2C(c2ccccc2)N1CCCN(C)C (racemic)
answer-label: three
//
compound: COc1cccc(C2c3cc(Cl)ccc3N=C(C)N2CCN2CCCCC2)c1 (stereo not given)
answer-label: three
//
compound: CC1=Nc2ccccc2C(c2ccccc2)N1CCN1CCCCC1 (racemic)
answer-label: one
//
compound: O=C1CN2C(=Nc3ccc(Br)cc3C2c2ccccc2)CN1 (racemic)
answer-label: three
//
compound: CC1=Nc2ccc(Br)cc2C(c2ccccc2)N1CC(=O)O (racemic)
answer-label: three
//
compound: CC1=Nc2ccc(Cl)cc2C(c2ccccc2)N1CCNC(=O)CN(C)C (racemic)
answer-label: one
//
compound: CC1=Nc2ccc(Cl)cc2C(c2cccc(Cl)c2)N1CCN1CCCCC1 (stereo not given)
answer-label: two
//
compound: CC1=Nc2ccc(Cl)cc2C(c2ccccc2)N1CCN1CCN(C)CC1 (racemic)
answer-label: one
//
compound: COC(=O)CN1C(C)=Nc2ccc(Cl)cc2C1c1ccccc1 (racemic)
answer-label: two
